All values here come from ChEMBL document CHEMBL4261582.

So I've got a bunch of compounds here, and I need their pIC50 values.
System: Trypanosoma cruzi
Test: Antitrypanosomal activity against Trypanosoma cruzi Tulahuen C2C4 trypomastigotes infected in rat skeletal myoblasts L-6 cells after 96 hrs by CPRG/Nonidet reagent based spectrophotometric method
Assay type: functional, organism-based
Settings: Tulahuen C2C4, L6, 96 h
One number for each entry, as −log10 of the molar value.

| structure | pIC50 |
| --- | --- |
| O=c1cc(-c2ccc(O)cc2)oc2cc(O[C@@H]3O[C@H](CO)[C@@H](O)[C@H](O)[C@H]3O)cc(O)c12 | 4.16 |
| O=c1c(O)c(-c2cc(O)c(O)c(O)c2)oc2cc(O)cc(O)c12 | 4.03 |
| Oc1cc(O)c2c(c1)O[C@H](c1ccc(O)c(O)c1)[C@@H](O)C2 | 3.51 |
| O=C(O)/C=C/c1ccc(O)c(O)c1 | 3.78 |
| O=c1c(O)c(-c2ccc(O)cc2)oc2cc(O)cc(O)c12 | 4.08 |

Look at each compound and report its pIC50.
1. O=C(O)/C=C/c1ccccc1O
2. COc1ccc(-c2oc3cc(O)cc(O)c3c(=O)c2O)cc1O
3. O=C(O)/C=C/c1ccccc1
4. O=c1ccc2ccc(O)cc2o1

[3.74, 4.69, 3.69, 3.26]

Consider the compound CC[C@H](CC[C@H](C)[C@H]1CC[C@H]2[C@@H]3CC=C4C[C@@H](O)CC[C@]4(C)[C@H]3CC[C@]12C)C(C)C and give its recorded pIC50. 4.45
